B1: Serine endoprotease DegS (Escherichia coli (strain K12)), P0AEE3 (parent)
chain: MFVKLLRSVAIGLIVGAILLVAMPSLRSLNPLSTPQFDSTDETPASYNLAVRRAAPAVVNVYNRGLNTNSHNQLEIRTLGSGVIMDQRGYIITNKHVINDADQIIVALQDGRVFEALLVGSDSLTDLAVLKINATGGLPTIPINARRVPHIGDVVLAIGNPYNLGQTITQGIISATGRIGLNPTGRQNFLQTDASINHGNSGGALVNSLGELMGINTLSFDKSNDGETPEGIGFAIPFQLATKIMDKLIRDGRVIRGYIGIGGREIAPLHAQGGGIDQLQGIVVNEVSPDGPAANAGIQVNDLIISVDNKPAISALETMDQVAEIRPGSVIPVVVMRDDKQLTLQVTIQEYPATN
partner: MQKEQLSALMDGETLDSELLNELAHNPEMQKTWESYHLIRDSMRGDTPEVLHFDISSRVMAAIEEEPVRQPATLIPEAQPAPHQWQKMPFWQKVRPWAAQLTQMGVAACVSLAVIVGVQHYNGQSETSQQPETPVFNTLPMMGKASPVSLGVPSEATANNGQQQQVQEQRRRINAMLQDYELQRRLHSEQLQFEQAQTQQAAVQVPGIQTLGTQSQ

- Variants of: B1
- experimental-setup: with rsea_ecoli rseA
endpoint: effect of a mutation on the interaction

>  <mutant-label>
R256D

>  <effect of a mutation on the interaction>
decreasing interaction

$$$$
>  <mutant-label>
R178A

>  <effect of a mutation on the interaction>
decreasing interaction

$$$$
>  <mutant-label>
E227A

>  <effect of a mutation on the interaction>
increasing interaction

$$$$
>  <mutant-label>
R256A

>  <effect of a mutation on the interaction>
increasing interaction

$$$$
>  <mutant-label>
D122A

>  <effect of a mutation on the interaction>
decreasing interaction

$$$$
>  <mutant-label>
K243D

>  <effect of a mutation on the interaction>
increasing interaction

$$$$

Value of measured effect of a mutation on the interaction for the entry Y162F : decreasing interaction

Just so you know, measured effect of a mutation on the interaction for D320A came out at increasing interaction
